Test system: SNB-75 CNS
Assay: NCI-60 one-dose screen, 48 h (100 = growth as untreated, 0 = no growth, -100 = all killed)
Conditions: 10 µM unless noted
About 83,000 compounds went through this panel and 20% of them were active in at least one assay; those are over-represented in the sample as a whole.
With a cut-off of 90%, any growth strictly below it is called yes; any growth meeting it or above is called no.

>  <COMPOUND>
N#CC1=C(N)OC2=C(C(=O)CCC2)C1c1ccco1 (stereo unspecified)

>  <TARGET OR SYSTEM>
SNB-75 CNS

>  <ANSWER LABEL>
no

$$$$
>  <COMPOUND>
COc1cc(/C=C2\CCCC3=C2NC(C)=NC3c2cc(OC)c(OC)c(OC)c2)cc(OC)c1OC (stereo unspecified)

>  <TARGET OR SYSTEM>
SNB-75 CNS

>  <ANSWER LABEL>
yes

$$$$
>  <COMPOUND>
COc1ccc(/C=C/C(=O)c2ccc(B(O)O)cc2)cc1O

>  <TARGET OR SYSTEM>
SNB-75 CNS

>  <ANSWER LABEL>
yes

$$$$
>  <COMPOUND>
CCCS(=O)(=O)c1nc(NC2CC2)cc(-c2ccc3c(ccn3C3CC(C)(C)NC(C)(C)C3)c2)n1

>  <TARGET OR SYSTEM>
SNB-75 CNS

>  <ANSWER LABEL>
yes

$$$$
>  <COMPOUND>
O=C(c1ccccc1)C(Cl)C(Cl)c1ccccc1 (stereo unspecified)

>  <TARGET OR SYSTEM>
SNB-75 CNS

>  <ANSWER LABEL>
yes

$$$$
>  <COMPOUND>
Cc1cnc(NC(=O)C(Cc2ccccc2)NC(=O)c2ccccc2)s1 (stereo unspecified)

>  <TARGET OR SYSTEM>
SNB-75 CNS

>  <ANSWER LABEL>
yes

$$$$
>  <COMPOUND>
Cc1nc(Nc2cccnc2)sc1C(=O)/C=C/c1ccc(Cl)cc1

>  <TARGET OR SYSTEM>
SNB-75 CNS

>  <ANSWER LABEL>
yes

$$$$
>  <COMPOUND>
O=C1Nc2cc(Cl)ccc2/C1=C/c1ccc(N2CCOCC2)s1

>  <TARGET OR SYSTEM>
SNB-75 CNS

>  <ANSWER LABEL>
no

$$$$
>  <COMPOUND>
CN(C)C1CCC(NC2=CC(=O)C=CC2=O)CC1 (stereo unspecified)

>  <TARGET OR SYSTEM>
SNB-75 CNS

>  <ANSWER LABEL>
yes

$$$$

====

Tested on: NCI-H460 lung
Test: NCI-60 one-dose screen, 48 h (100 = growth as untreated, 0 = no growth, -100 = all killed)
Settings: 10 µM unless noted
The panel holds about 83,000 compounds, 20% with a hit somewhere; the sample as a whole holds those more often.
With a cut-off of 20%, any growth strictly below it is called label 1; any growth meeting it or above is called label 0.

>  <COMPOUND>
NC(CC(N)C(=O)O)C(=O)O (centres undefined)

>  <ANSWER LABEL>
label 0

$$$$
>  <COMPOUND>
Cc1cc(NC(=O)COC(=O)c2sc3cc(F)ccc3c2Cl)no1

>  <ANSWER LABEL>
label 0

$$$$
>  <COMPOUND>
Cn1c(=O)c2c(nc3n2CCN(CCc2ccc(OCCN4CCOCC4)cc2)C3)n(C)c1=O

>  <ANSWER LABEL>
label 0

$$$$
>  <COMPOUND>
CCN(CC)P(=O)(N(CC)CC)N(CCCSC/C=C(\C)CC/C=C(\C)CCC=C(C)C)CCCN1CCN(C)CC1

>  <ANSWER LABEL>
label 0

$$$$
>  <COMPOUND>
Cc1nc(Nc2cccnc2)sc1C(=O)/C=C/c1ccc(Cl)cc1

>  <ANSWER LABEL>
label 0

$$$$
>  <COMPOUND>
CC1=C(C#N)C(C)(C)C(C#N)=C(C)N1

>  <ANSWER LABEL>
label 0

$$$$
>  <COMPOUND>
Cc1cc2c(C(C)C)c(O)c(O)c(C=NCCCCCCC(=O)O)c2c(O)c1-c1c(C)cc2c(C(C)C)c(O)c(O)c(C=NCCCCCCC(=O)O)c2c1O

>  <ANSWER LABEL>
label 1

$$$$
>  <COMPOUND>
Cc1c(C(=O)NCc2ccccc2)[n+](=O)c2cc(F)ccc2n1[O-]

>  <ANSWER LABEL>
label 0

$$$$
>  <COMPOUND>
COc1ccc(C(=O)N2CCN(C(=O)c3cc(OC)c(OC)c(OC)c3)CC2)cc1OCCCCOc1cc2c(cc1OC)C(=O)N1CCC[C@H]1C=N2

>  <ANSWER LABEL>
label 0

$$$$
>  <COMPOUND>
COc1ccc(C2=NN(c3ccc(S(N)(=O)=O)cc3)C(c3cn(-c4ccccc4)nc3-c3ccc(Cl)cc3)C2)cc1 (centres undefined)

>  <ANSWER LABEL>
label 0

$$$$
>  <COMPOUND>
Nc1c(C(=O)Nc2ccccc2)sc2nc3c(cc12)CCC3

>  <ANSWER LABEL>
label 0

$$$$
>  <COMPOUND>
CCCC(C(=O)OCC)C(C)OC(=O)OCC (centres undefined)

>  <ANSWER LABEL>
label 0

$$$$
>  <COMPOUND>
COc1cc(OC)c(C(=O)/C=C/c2ccc(C#N)cc2)c(OC)c1

>  <ANSWER LABEL>
label 1

$$$$
>  <COMPOUND>
COc1ccc(/C=C/c2cc(N3CCOCC3)c3cc(F)c(F)cc3n2)cc1OC

>  <ANSWER LABEL>
label 0

$$$$
>  <COMPOUND>
Cc1ccc(Nc2ncnc3c2sc2ncccc23)cc1

>  <ANSWER LABEL>
label 0

$$$$
>  <COMPOUND>
CC[C@]1(O)C[C@@H]2CN(Cc3c([nH]c4ccccc34)[C@@](C(=O)OC)(c3cc4c(cc3OC)N(C)[C@H]3[C@@](O)(C(=O)OC)[C@H](OC(C)=O)[C@]5(CC)[C@@H]6C[C@@H]6CN6CC[C@]43[C@@H]65)C2)C1

>  <ANSWER LABEL>
label 1

$$$$
>  <COMPOUND>
COc1ccc2c(c1)NC(=O)CN2c1nc(NC2CC2)nc2ccccc12

>  <ANSWER LABEL>
label 1

$$$$
>  <COMPOUND>
C=C1C(=O)O[C@H]2[C@H](O)[C@@H](C)CCC/C(C)=C/CC[C@@]3(C)O[C@@H]3C[C@@H]12

>  <ANSWER LABEL>
label 0

$$$$
>  <COMPOUND>
CC(CCc1ccccc1)NC(=O)c1n[nH]c(=O)c2ccccc12 (centres undefined)

>  <ANSWER LABEL>
label 0

$$$$
>  <COMPOUND>
Cc1cc(Cl)ccc1OC(C)C(=O)Nc1nnc(C2CC2)s1 (centres undefined)

>  <ANSWER LABEL>
label 0

$$$$
>  <COMPOUND>
c1cncc(CNc2ccccc2-c2nnc(Nc3ccc4c(c3)OCCO4)o2)c1

>  <ANSWER LABEL>
label 1

$$$$
>  <COMPOUND>
COc1ncc(-c2ccc3ncnc(Nc4cccc(Cl)c4)c3c2)cc1NS(=O)(=O)CCN1CCOCC1

>  <ANSWER LABEL>
label 1

$$$$
>  <COMPOUND>
CCN(Cc1ccc(CN(CC)C(=O)C(Br)Br)cc1)C(=O)C(Br)Br

>  <ANSWER LABEL>
label 1

$$$$
>  <COMPOUND>
COc1cc(CNC(=O)CSc2nc3ccccc3c(=O)n2Cc2cc(OC)c(OC)c(OC)c2)cc(OC)c1OC

>  <ANSWER LABEL>
label 0

$$$$
>  <COMPOUND>
C[N+](C)(C)c1ccc(CC2c3ccccc3-c3ccccc32)cc1

>  <ANSWER LABEL>
label 0

$$$$
>  <COMPOUND>
COc1cc(Br)c(OC)cc1Br

>  <ANSWER LABEL>
label 0

$$$$
>  <COMPOUND>
Cc1cc(C)c(NC(=O)c2sc3nc4c(cc3c2N)CN(Cc2ccccc2)CC4)c(C)c1

>  <ANSWER LABEL>
label 1

$$$$
>  <COMPOUND>
COc1cc(C2C=C(C)N=C3SC=CN32)cc(OC)c1OC (centres undefined)

>  <ANSWER LABEL>
label 0

$$$$
>  <COMPOUND>
COC1=CC(c2ccc[nH]2)=N/C1=C\c1[nH]c(C)c(C(=O)CCCCC(=O)Nc2ccccc2)c1C

>  <ANSWER LABEL>
label 1

$$$$
>  <COMPOUND>
CCN(C(=O)c1cc2ncccc2[nH]1)[C@H]1CCC[C@@H](NCc2cccc(F)c2)C1

>  <ANSWER LABEL>
label 0

$$$$
>  <COMPOUND>
COc1cc(NC(=O)c2cc3ccccc3nc2Nc2ccc(F)cc2)cc(OC)c1OC

>  <ANSWER LABEL>
label 0

$$$$
>  <COMPOUND>
O=C(/C=C/c1ccccc1)n1c(-c2ccc(Cl)cc2)nc2ccccc21

>  <ANSWER LABEL>
label 1

$$$$
>  <COMPOUND>
Cc1ccnc2nc(C(=O)OCC(=O)Nc3ccc(-c4ccccc4)cc3)nn12

>  <ANSWER LABEL>
label 0

$$$$
>  <COMPOUND>
COc1ccc(NC(=O)/N=c2\oc3c(OC)cccc3cc2-c2cc3ccccc3[nH]2)cc1

>  <ANSWER LABEL>
label 0

$$$$
>  <COMPOUND>
Clc1nc2ccccc2nc1CI

>  <ANSWER LABEL>
label 0

$$$$
>  <COMPOUND>
CCn1cc(C2NC(=O)c3cc(F)ccc3N2)c2cccc(Cl)c21 (centres undefined)

>  <ANSWER LABEL>
label 1

$$$$
>  <COMPOUND>
Nc1ccccc1C#C/C=C\C#Cc1cccc(O)c1

>  <ANSWER LABEL>
label 0

$$$$
>  <COMPOUND>
COc1cc(/C=C/C(=O)c2ccc(NC(=O)CN3CCN(c4cc5c(cc4F)c(=O)c(C(=O)O)cn5C4CC4)CC3)cc2)cc(OC)c1OC

>  <ANSWER LABEL>
label 1

$$$$

# credit: PubChem BioAssay (NCI)
